Target: Glutamate NMDA receptor
Experiment: Displacement of [3H]CGP39653 from NMDA receptor in rat brain membranes by scintillation counting method
Entries and their Ki

NC(Cc1ccc([N+](=O)[O-])c(-c2cccc(O)c2)c1)C(=O)O (racemic) : > 100 µM
NC(Cc1cc(-c2cccc(O)c2)cc([N+](=O)[O-])c1)C(=O)O (racemic) : > 100 µM
Nc1c(Cl)cc(CC(N)C(=O)O)cc1-c1cccc(O)c1 (racemic) : > 100 µM

Next compound, please.
Exam item: Need Ki of NC(Cc1ccc(Cl)c(-c2cccc(O)c2)c1)C(=O)O (racemic) , thanks.
Marked response: > 100 µM

----------
Test: Displacement of [3H]AMPA from AMPA receptor in rat brain membranes
Assay type: cell membranes, Membrane
quantity_name: pKi
The value called pKi is obtained by taking minus log10 of the concentration in mol/L.

Exam item: Name the reported pKi value associated with the compound `CC(C)(C)c1onc(OCP(=O)(O)O)c1C[C@H](N)C(=O)O`
Marked response: 4.80

----------
Biological target: Glutamate receptor 2 (Rattus norvegicus, UniProt P19491)
Sequence (P19491 whole entry, canonical isoform): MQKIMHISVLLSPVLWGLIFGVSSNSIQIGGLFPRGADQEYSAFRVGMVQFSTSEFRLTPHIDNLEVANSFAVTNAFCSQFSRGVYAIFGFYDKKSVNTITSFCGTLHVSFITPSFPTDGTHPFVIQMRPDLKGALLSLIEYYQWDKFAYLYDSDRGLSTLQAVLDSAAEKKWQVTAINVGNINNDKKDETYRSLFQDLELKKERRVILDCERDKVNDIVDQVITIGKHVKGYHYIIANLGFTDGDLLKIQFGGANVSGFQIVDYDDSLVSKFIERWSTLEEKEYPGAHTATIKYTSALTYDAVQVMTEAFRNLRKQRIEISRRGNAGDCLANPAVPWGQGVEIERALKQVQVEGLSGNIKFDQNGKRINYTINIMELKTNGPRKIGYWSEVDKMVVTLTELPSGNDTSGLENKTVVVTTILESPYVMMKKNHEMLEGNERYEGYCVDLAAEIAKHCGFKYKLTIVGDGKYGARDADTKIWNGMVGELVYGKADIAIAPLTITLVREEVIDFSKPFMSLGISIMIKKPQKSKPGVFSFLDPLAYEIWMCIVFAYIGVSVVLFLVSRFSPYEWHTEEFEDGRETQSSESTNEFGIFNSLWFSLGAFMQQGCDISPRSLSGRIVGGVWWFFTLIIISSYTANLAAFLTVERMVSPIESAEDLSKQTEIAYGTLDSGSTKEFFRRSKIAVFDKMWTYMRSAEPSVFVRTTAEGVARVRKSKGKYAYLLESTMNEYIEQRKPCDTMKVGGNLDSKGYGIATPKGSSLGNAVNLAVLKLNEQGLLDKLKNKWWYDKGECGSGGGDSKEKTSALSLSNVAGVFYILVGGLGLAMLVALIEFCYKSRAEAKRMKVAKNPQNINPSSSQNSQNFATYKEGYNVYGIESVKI
Test: Displacement of [3H]AMPA from rat GluA2(R) receptor flip isoform expressed in sf9 insect cell membranes by TopCount method
pKi: −log10 of the molar value.
quantity_name: pKi

N[C@H](Cc1cc(Cl)cc(-c2cccc(O)c2)c1)C(=O)O : 4.68

(A) N[C@@H](Cc1cc(-c2cc(O)ccc2O)c(Cl)c([N+](=O)[O-])c1)C(=O)O
(B) N[C@H](Cc1cc(-c2cc(O)ccc2O)c(Cl)c([N+](=O)[O-])c1)C(=O)O
(C) N[C@@H](Cc1cc(Cl)cc(-c2cccc(O)c2)c1)C(=O)O
Exam item: Sort the 3 compounds by pKi; largest first, smallest last. Lab note: final answer is the ordered label list.
Marked response: B, A, C
(B: 5.77, A: 4.74, C: 4.39)

----------
Biological target: Glutamate receptor 3 (Rattus norvegicus)
Sequence (P19492 whole entry, canonical isoform): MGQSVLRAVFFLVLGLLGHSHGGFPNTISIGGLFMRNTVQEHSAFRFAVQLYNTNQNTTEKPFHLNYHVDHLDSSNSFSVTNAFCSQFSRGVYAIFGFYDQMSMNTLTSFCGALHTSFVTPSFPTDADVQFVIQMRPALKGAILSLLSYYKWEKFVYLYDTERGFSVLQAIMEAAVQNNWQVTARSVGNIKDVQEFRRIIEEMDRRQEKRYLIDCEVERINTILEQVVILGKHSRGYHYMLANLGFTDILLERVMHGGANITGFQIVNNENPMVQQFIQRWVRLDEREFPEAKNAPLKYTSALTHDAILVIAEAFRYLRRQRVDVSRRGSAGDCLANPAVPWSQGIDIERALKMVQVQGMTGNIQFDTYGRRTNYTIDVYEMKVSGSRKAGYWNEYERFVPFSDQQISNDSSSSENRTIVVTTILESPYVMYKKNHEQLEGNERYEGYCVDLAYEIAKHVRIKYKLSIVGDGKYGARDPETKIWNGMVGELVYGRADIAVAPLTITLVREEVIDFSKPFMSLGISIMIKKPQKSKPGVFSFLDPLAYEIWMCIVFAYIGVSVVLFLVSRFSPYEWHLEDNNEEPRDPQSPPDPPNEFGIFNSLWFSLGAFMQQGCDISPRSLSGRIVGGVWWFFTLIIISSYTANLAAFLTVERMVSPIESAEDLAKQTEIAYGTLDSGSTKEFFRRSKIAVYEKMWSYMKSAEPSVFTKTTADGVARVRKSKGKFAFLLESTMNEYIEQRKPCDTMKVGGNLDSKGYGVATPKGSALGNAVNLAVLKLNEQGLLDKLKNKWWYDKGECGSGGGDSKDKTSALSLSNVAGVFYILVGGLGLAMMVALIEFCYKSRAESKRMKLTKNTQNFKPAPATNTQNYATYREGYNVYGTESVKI
Test: Displacement of [3H]AMPA from rat GluA3 receptor flip isoform expressed in sf9 insect cell membranes by TopCount method
List of Ki values.

Guide cases for Ki, answers given:
N[C@@H](Cc1ccc(Cl)c(-c2cccc(O)c2)c1)C(=O)O : > 100 µM
N[C@H](Cc1cc(-c2cc(O)ccc2O)c(Cl)c([N+](=O)[O-])c1)C(=O)O : 7.01 µM
N[C@H](Cc1cc(Cl)cc(-c2cccc(O)c2)c1)C(=O)O : > 100 µM
N[C@@H](Cc1cc(Cl)cc(-c2cccc(O)c2)c1)C(=O)O : > 100 µM
N[C@H](Cc1ccc(Cl)c(-c2cccc(O)c2)c1)C(=O)O : > 100 µM

Exam item: Param item = `N[C@@H](Cc1cc(-c2cc(O)ccc2O)c(Cl)c([N+](=O)[O-])c1)C(=O)O` ; retrieve measured Ki.
Marked response: > 100 µM

----------
Test: Displacement of [3H]KA from KA receptor in rat brain membranes by scintillation counting method
Type: cell membranes, Membrane
quantity_name: Ki

Illustrative cases are given below, each with its answer.
NC(Cc1cc(Cl)cc(-c2cccc(O)c2)c1)C(=O)O (racemic) : > 100 µM
COc1c(Cl)cc(CC(N)C(=O)O)cc1-c1cccc(O)c1 (racemic) : > 100 µM
NC(Cc1ccc(Cl)c(-c2cccc(O)c2)c1)C(=O)O (racemic) : > 100 µM
NC(Cc1cc(-c2cncc(O)c2)c(Cl)c([N+](=O)[O-])c1)C(=O)O (racemic) : > 100 µM
NC(Cc1cc(-c2ccc(O)cc2)cc([N+](=O)[O-])c1)C(=O)O (racemic) : > 100 µM
NC(Cc1cc(Cl)c(O)c(-c2cccc(O)c2)c1)C(=O)O (racemic) : > 100 µM

Exam item: State the recorded Ki for this entry: NC(Cc1cc(-c2cc(O)ccc2O)c(Cl)c([N+](=O)[O-])c1)C(=O)O (racemic)
Marked response: 15 µM

Exam item: Which Ki is reported for this compound? Nc1c(Cl)cc(CC(N)C(=O)O)cc1-c1cccc(O)c1 (racemic)
Marked response: > 100 µM

Exam item: What Ki value was documented for this compound, `CC(C)(C)c1onc(OCP(=O)(O)O)c1C[C@H](N)C(=O)O` ?
Marked response: > 100 µM

Exam item: Reported Ki, compound Nc1c(-c2cccc(O)c2)cc(CC(N)C(=O)O)cc1[N+](=O)[O-] (racemic) : ____
Marked response: > 100 µM

Exam item: Ki lookup needed for NC(Cc1cc(Cl)c(Cl)c(-c2cccc(O)c2)c1)C(=O)O (racemic) , thanks.
Marked response: > 100 µM

----------
Experiment: Displacement of [3H]AMPA from AMPA receptor in rat brain membranes by scintillation counting method
Assay type: cell membranes, Membrane
quantity_name: Ki (µM)

NC(Cc1ccc([N+](=O)[O-])c(-c2cccc(O)c2)c1)C(=O)O (racemic) : 21
NC(Cc1cc(-c2ccc(O)cc2)c(Cl)c([N+](=O)[O-])c1)C(=O)O (racemic) : 23

----------
Assay: Displacement of [3H]KA from KA receptor in rat brain membranes by scintillation counting method
Format: cell membranes, Membrane
pKi: −log10 of the molar value.
Measured pKi, listed per entry.

See these solved cases before continuing.
NC(Cc1cc(Cl)c(Cl)c(-c2cncc(O)c2)c1)C(=O)O (racemic) : < 4.00
NC(Cc1cc(-c2cccc(O)c2)cc([N+](=O)[O-])c1)C(=O)O (racemic) : < 4.00
NC(Cc1cc(-c2cc(O)cc(F)c2)c(Cl)c([N+](=O)[O-])c1)C(=O)O (racemic) : 4.59
NC(Cc1cccc(-c2cccc(O)c2)c1)C(=O)O (racemic) : < 4.00
NC(Cc1ccc([N+](=O)[O-])c(-c2cccc(O)c2)c1)C(=O)O (racemic) : < 4.00

Exam item: Dear colleague, I am looking for the recorded pKi of the following compound: NC(Cc1ccc(Cl)c(-c2ccc(O)cc2)c1)C(=O)O (racemic)
Marked response: < 4.00

Exam item: Fill in the blank: the reported pKi of NC(Cc1cc(-c2ccc(O)cc2)c(Cl)c([N+](=O)[O-])c1)C(=O)O (racemic) is ____.
Marked response: < 4.00

Exam item: Requested read-out: pKi. Entry: NC(Cc1ccc([N+](=O)[O-])c(-c2ccc(O)cc2)c1)C(=O)O (racemic)
Marked response: < 4.00

Exam item: I am curious: what pKi value has been reported for NC(Cc1cc(Cl)cc(-c2ccc(O)cc2)c1)C(=O)O (racemic) ?
Marked response: < 4.00

Exam item: Look up pKi: Nc1ccc(CC(N)C(=O)O)cc1-c1cccc(O)c1 (racemic)
Marked response: < 4.00

Exam item: Tell me the measured pKi of NC(Cc1cc(-c2cccc(O)c2)c(Cl)c([N+](=O)[O-])c1)C(=O)O (racemic) , please.
Marked response: < 4.00

Value source: ChEMBL document CHEMBL4190283
